FYI, the data here is from patent US20210403601A1.

ASSAYED TARGET: T1, Taq DNA polymerase (Thermus aquaticus, UniProt P19821 1-832)
T1 construct: also called Taq enzyme; Taq DNA enzyme
T1 sequence (P19821 whole entry): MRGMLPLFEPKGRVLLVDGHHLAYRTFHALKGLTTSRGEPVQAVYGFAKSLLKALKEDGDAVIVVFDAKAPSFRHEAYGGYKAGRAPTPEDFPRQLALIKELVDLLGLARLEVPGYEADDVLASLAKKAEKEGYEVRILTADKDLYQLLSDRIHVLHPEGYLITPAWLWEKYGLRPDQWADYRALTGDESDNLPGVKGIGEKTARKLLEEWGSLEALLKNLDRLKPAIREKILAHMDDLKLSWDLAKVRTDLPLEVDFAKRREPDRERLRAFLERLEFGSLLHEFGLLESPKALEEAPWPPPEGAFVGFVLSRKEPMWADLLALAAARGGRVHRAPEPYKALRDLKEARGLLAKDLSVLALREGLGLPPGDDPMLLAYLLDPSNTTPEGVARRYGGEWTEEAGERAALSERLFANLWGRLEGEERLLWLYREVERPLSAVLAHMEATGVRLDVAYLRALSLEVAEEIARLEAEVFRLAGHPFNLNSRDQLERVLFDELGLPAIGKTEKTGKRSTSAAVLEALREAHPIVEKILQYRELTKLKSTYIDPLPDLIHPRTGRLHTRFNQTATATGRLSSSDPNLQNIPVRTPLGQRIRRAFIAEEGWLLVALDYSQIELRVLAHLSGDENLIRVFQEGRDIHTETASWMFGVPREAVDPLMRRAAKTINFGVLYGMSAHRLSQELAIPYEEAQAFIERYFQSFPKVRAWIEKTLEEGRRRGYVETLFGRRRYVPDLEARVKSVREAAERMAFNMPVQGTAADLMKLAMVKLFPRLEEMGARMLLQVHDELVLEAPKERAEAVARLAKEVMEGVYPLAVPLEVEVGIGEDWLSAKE
PROCEDURE TEXT: AMC sensor, antibody immobilised
Documented koff across a set of binders
MEASUREMENT NAME: koff (s⁻¹)

INSERT INTO results (binder, measurement_name, number) VALUES
  ('Mutation 1-25 (antibody, V domains shown, Mutation 1 background; CDRs built) VH: QVQLQQPGAELVKPGASVRLSCQTSVETFTTYYIYWVKQRPGEGLEWIGGINPTSGGPVFNEKFKSKATLTVDTSSSTAYMQLSSLTSVDSAVYYCTRSLVRRGYYFDYWGQGTALTVSS VL: DIQMTQTTSSLSASLGDRVTISCRASQDINNYVNWYQQKPDGTIKLLIYYTSRLHSGLPSRFSGSGSGTDYSLTIANLEQEDIATYFCQQDDTLPITFGAGTKVELKR', 'koff', '4.57e-05'),
  ('Mutation 1-41 (antibody, V domains shown, Mutation 1 background; CDRs built) VH: QVQLQQPGAELVKPGASVRLSCQTSVDTFTTYYIYWVKQRPGEGLEWIGGVNPTSNPVFNEKFKSKATLTVDTSSSTAYMQLSSLTSVDSAVYYCTRSVIRRGYYFDYWGQGTALTVSS VL: DIQMTQTTSSLSASLGDRVTISCRASQDINNYINWYQQKPDGTIKLLIYYTSRLNSGVPSRFSGSGSGTDYSLTIANLEQEDIATYFCQQDDTVPVTFGAGTKVELKR', 'koff', '9.82e-06'),
  ('Mutation 1-33 (antibody, V domains shown, Mutation 1 background; CDRs built) VH: QVQLQQPGAELVKPGASVRLSCQTSVETFSTYYIYWVKQRPGEGLEWIGGINPTSGGPVFNEKFKSKATLTVDTSSSTAYMQLSSLTSVDSAVYYCTRSLLRRGYYFDYWGQGTALTVSS VL: DIQMTQTTSSLSASLGDRVTISCRASQDINNYLNWYQQKPDGTIKLLIYYTSRLQSGLPSRFSGSGSGTDYSLTIANLEQEDIATYFCQQDDTLPLTFGAGTKVELKR', 'koff', '3.94e-05');
